Molecular target: SARS-CoV-2 Spike S1-His (SARS-CoV-2, UniProt P0DTC2 16-685)
Assay: Octet BLI, IgG, monovalent
pKd: −log10 of the molar value.
Lab note: compare pKd against 8. Equal or greater, write 1 (yes). Smaller, write 0 (no).

Illustrative cases are given below, each with its answer.
| binder | group |
| --- | --- |
| A-3 (antibody, V domains shown) VH: EVQLLESGPGLVKPSETLSLTCTVSGGSINSRSYYWGWIRQPPGKGLEWIGSIYYSGSTYYNPSLKSRVTISVDTSKNQFSLKLSSVIAADTAVYFCARLEQWELPGGWFDPWGQGTLVTVSS VL: NFMLTQPHSVSESPGKTVTISCTRSSGSIASNYVQWYQQRPGSAPTTVIYEDNQRPSGVPDRFSGSIDISSNSASLTISGLKTEDEADYSCQSSDSSNVVFGGGTKLTVL | 0 (no) |
| A-12 (antibody, V domains shown) VH: EVQLLESGGGLVQPGGSLRLSCAVSGLTVSSNYMSWVRQAPGKGLEWVSLIYSGGSTYYADSVKGRFTISRDNSKNTLYLQMNSLRAEDTAVYYCARGELGIPYGMDVWGQGTTVTVSS VL: QSVLTQPPSVSAAPGQKVTISCSGGSSNVGDNFVSWYQQLPGTAPKLLIYDNNRRPSGIPDRFSGSKSGTSATLGITGLQTGDEADYYCGTWDSSLSAGVFGGGTKVTVL | 1 (yes) |
| A-14 (antibody, V domains shown) VH: EVQLVESGGGVVQPGRSLRLSCAASGFTFSTYGMHWVRQAPGKGLEWVAVIWYDGSNKYYADSVKGRFTISRDNSKNTLYLQMNSLRAEDTAVYYCARSVDGDYLEYFQHWGQGTLVTVSS VL: QPVLTQPRSVSGSPGQSVTISCTGTSSDVGGYNYVSWYQQHPGKAPKLMIYDVSKRPSGVPDRFSGSKSGNTASLTISGLQAEDEADYYCCSYAGGYTNYVFGTGTKLTVL | 0 (no) |

Here's the next entry for you.
Incoming: Hi, just wondering whether A-7 (antibody, V domains shown) VH: EVQLVESGAEVRKPGASVKVSCKASGYTFTFYYIHWVRQAPGQGLEWMGWISPISGATNYAQTFQGRVTMTRDTSITTAYMELSSLTSDDTAVYYCAREKYYDSSGSSDYWGQGTLVTVSS VL: QPVLTQPPSVSAAPGQNVTIFCSGSSSNIGNNYVSWYQQLPGPAPKLLIYENNKRPSGIPDRFSGSKSGTSATLGITGLQTGDEADYYCGTWESSLSAPRVFGSGTKLTVL shows pKd of 8 or higher.
Outgoing: 1 (yes)

These data points were gathered from patent US20260217797A1.
